TARGET OR TEST SYSTEM: Muscarinic acetylcholine receptor M1 (Homo sapiens, UniProt P11229)
Sequence (P11229 whole entry): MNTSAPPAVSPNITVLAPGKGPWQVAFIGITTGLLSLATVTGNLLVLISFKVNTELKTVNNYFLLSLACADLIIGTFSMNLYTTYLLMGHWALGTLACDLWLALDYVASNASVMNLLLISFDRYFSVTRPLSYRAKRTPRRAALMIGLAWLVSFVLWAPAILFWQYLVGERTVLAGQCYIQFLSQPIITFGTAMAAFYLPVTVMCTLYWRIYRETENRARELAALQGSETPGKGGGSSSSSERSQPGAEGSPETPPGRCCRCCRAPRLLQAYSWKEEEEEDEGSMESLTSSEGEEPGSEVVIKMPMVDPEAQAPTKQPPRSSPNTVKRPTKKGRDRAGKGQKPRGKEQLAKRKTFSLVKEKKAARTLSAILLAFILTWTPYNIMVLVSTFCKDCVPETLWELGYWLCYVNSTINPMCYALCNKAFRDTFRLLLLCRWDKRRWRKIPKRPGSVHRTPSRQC
For each record, check the reported Ki: if it is below 20 µM write TRUE, else write FALSE.

Data request: Problem: For the compound CC(=O)OC1CC2CCCC1N2C (stereo not given) , is Ki under 20 µM?
Data returned: FALSE

Data request: Is Ki strictly under 20 µM for the entry C[C@H]1O[C@@H]([C@H]2CCC[N+]2(C)C)CS1 ?
Data returned: TRUE

Data request: is_below(Ki, 20 µM) for O=C1CCCN1CC#CCN1CCCC1 ?
Data returned: TRUE

Data request: In the record for Cc1nccn1CC#CCN1CCCC1=O , is Ki less than 20 µM?
Data returned: TRUE

Data request: Consider C[C@@H]1O[C@H]([C@H]2CCC[N+]2(C)C)CS1 . Does its Ki lie strictly below 20 µM?
Data returned: TRUE

Data request: I wonder whether C[C@H]1OC[C@@H]([C@H]2CCC[N+]2(C)C)O1 has Ki below 20 µM. Can you tell?
Data returned: FALSE

Data request: Check if Ki falls below 20 µM for C[C@@H]1O[C@H]([C@@H]2CCC[N+]2(C)C)CS1 .
Data returned: TRUE

Data request: API: query returns whether the compound falls strictly under 20 µM in Ki. Query: C[C@H]1OC[C@@H](C[N+](C)(C)C)O1
Data returned: TRUE

Data request: In plain terms, does C[C@@H]1O[C@H](C[N+](C)(C)C)CS1 come in under 20 µM for Ki?
Data returned: TRUE

Data request: Hello, is Ki of the following compound strictly smaller than 20 µM? CC(=O)OC1CC2CCCC1N2 (stereo not given)
Data returned: FALSE

Data request: API: query returns whether the compound falls strictly under 20 µM in Ki. Query: CO/N=C(\C#N)[C@H]1CN2CCC1CC2
Data returned: TRUE

Data request: Strictly below 20 µM in Ki? C[C@H]1O[C@@H]([C@@H]2CCC[N+]2(C)C)CS1
Data returned: TRUE

Data request: API: query returns whether the compound falls strictly under 20 µM in Ki. Query: C[C@H]1OC[C@@H]([C@@H]2CCC[N+]2(C)C)O1
Data returned: FALSE

Data request: Is it true that Ki reported for C[C@@H]1O[C@H]([C@@H]2CCC[N+]2(C)C)C[S+]1[O-] (stereo in doubt; 11) is less than 20 µM?
Data returned: FALSE

* * *

TARGET OR TEST SYSTEM: Muscarinic acetylcholine receptor M2 (Homo sapiens)
Sequence (P08172 whole entry): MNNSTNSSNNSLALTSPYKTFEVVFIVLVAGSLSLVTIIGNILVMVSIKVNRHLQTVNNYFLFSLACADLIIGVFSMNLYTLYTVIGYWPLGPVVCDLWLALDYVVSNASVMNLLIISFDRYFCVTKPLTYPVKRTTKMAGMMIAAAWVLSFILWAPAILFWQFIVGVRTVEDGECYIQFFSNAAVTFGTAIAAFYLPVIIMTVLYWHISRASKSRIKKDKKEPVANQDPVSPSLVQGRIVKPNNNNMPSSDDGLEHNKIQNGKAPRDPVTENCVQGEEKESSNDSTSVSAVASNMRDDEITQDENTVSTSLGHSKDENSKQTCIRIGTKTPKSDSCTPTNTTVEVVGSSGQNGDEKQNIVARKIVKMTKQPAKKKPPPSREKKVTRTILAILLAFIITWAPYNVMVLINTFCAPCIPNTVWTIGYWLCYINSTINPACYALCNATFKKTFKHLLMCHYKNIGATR
pKi: −log10 of the molar value.
Cut-off 6 on pKi, inclusive. At or above means Met; below means Not met.

Data request: # check: pKi of CC(=O)OC1CC2CCCC1N2 (configuration not stated) is greater than or equal to 6
Data returned: Met

Data request: Is the recorded value of pKi equal to or greater than 6 for this molecule? CC(=O)OC1CC2CCCC1N2C (configuration not stated)
Data returned: Not met

Data request: Is reported pKi greater than or equal to 6 here: O=C1CCCN1CC#CCN1CCCC1
Data returned: Met

Data request: Textbook exercise: given the entry C[C@@H]1O[C@H]([C@H]2CCC[N+]2(C)C)CS1 , state whether its pKi is greater than or equal to 6.
Data returned: Not met

Data request: Threshold query (pKi >= 6) on C[C@H]1COC[C@@H](C[N+](C)(C)C)O1
Data returned: Not met
